src = the RNAGym collection of RNA variant scans (doi:10.1073/pnas.2313332121)

B1: TPR t1 (parent)
chain: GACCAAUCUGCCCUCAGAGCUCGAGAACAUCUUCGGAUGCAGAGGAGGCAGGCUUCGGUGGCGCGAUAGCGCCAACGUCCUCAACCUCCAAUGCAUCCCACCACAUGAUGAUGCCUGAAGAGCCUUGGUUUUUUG

Variants of: B1
Assay Name: polymerase ribozyme fitness, log enrichment relative to wild type (log ratio); higher = more active; in vitro selection for triplet polymerase activity
Measured Property: polymerase ribozyme fitness (log ratio)
No unit in the answer, please; the number alone is enough.

Problem: Requested field: polymerase ribozyme fitness (log ratio). Item: A5U U54C G60A U112C
Result: 1.52

Problem: Requested field: polymerase ribozyme fitness (log ratio). Item: C34A C40U A41U C101A C114A G120A
Result: -6.72

Problem: Requested field: polymerase ribozyme fitness (log ratio). Item: A16U G36A A41U C73A
Result: -4.17

Problem: Requested field: polymerase ribozyme fitness (log ratio). Item: U21C C56A C70U C82A
Result: -2.18

Problem: Requested field: polymerase ribozyme fitness (log ratio). Item: C8A G110C
Result: -3.59

Problem: Requested field: polymerase ribozyme fitness (log ratio). Item: A66U C80A
Result: -5.71

Problem: Requested field: polymerase ribozyme fitness (log ratio). Item: C49A A66G C73U
Result: -1.61

Problem: Requested field: polymerase ribozyme fitness (log ratio). Item: G69U C76G C85G G120U
Result: -2.87

Problem: Requested field: polymerase ribozyme fitness (log ratio). Item: A26U C70A
Result: -5.16

Problem: Requested field: polymerase ribozyme fitness (log ratio). Item: C12A U14G G17A C20A C94A
Result: -3.13

Problem: Requested field: polymerase ribozyme fitness (log ratio). Item: C13U G48U
Result: -1.37

Problem: Requested field: polymerase ribozyme fitness (log ratio). Item: U21C C89A
Result: -1.81

Problem: Requested field: polymerase ribozyme fitness (log ratio). Item: C4U G52C G63A G110A
Result: -4.4

Problem: Requested field: polymerase ribozyme fitness (log ratio). Item: C82A U112G
Result: 0.0724

Problem: Requested field: polymerase ribozyme fitness (log ratio). Item: C56U C97U
Result: -0.00643

Problem: Requested field: polymerase ribozyme fitness (log ratio). Item: C4U C34G G57A U67C G69A C124U G127C
Result: -6.05

Problem: Requested field: polymerase ribozyme fitness (log ratio). Item: U7G A46C C97U G120U G127U
Result: 0.436

Problem: Requested field: polymerase ribozyme fitness (log ratio). Item: A5G A118U C123G
Result: 2.09

Problem: Requested field: polymerase ribozyme fitness (log ratio). Item: G23U C72G
Result: -6.36

Problem: Requested field: polymerase ribozyme fitness (log ratio). Item: U9G G60A U92G
Result: -2.36

Problem: Requested field: polymerase ribozyme fitness (log ratio). Item: C12G C70U
Result: -0.468

Problem: Requested field: polymerase ribozyme fitness (log ratio). Item: G69C A100U
Result: -1.67

Problem: Requested field: polymerase ribozyme fitness (log ratio). Item: G42C G120A U132A
Result: -0.616

Problem: Requested field: polymerase ribozyme fitness (log ratio). Item: C20A A41G C53A G71U U78G
Result: -5.43

Problem: Requested field: polymerase ribozyme fitness (log ratio). Item: C56A A119G
Result: 0.651

Problem: Requested field: polymerase ribozyme fitness (log ratio). Item: A91U C102U
Result: -4.75

Problem: Requested field: polymerase ribozyme fitness (log ratio). Item: A26U G36U C101U
Result: -5.32

Problem: Requested field: polymerase ribozyme fitness (log ratio). Item: C15G G25U A37U G69U G120C
Result: -7.24

Problem: Requested field: polymerase ribozyme fitness (log ratio). Item: A5U C11G C94U C104A G110C
Result: -5.6

Problem: Requested field: polymerase ribozyme fitness (log ratio). Item: G61A C124A
Result: 1.79

Problem: Requested field: polymerase ribozyme fitness (log ratio). Item: G17A G71A
Result: -4.07

Problem: Requested field: polymerase ribozyme fitness (log ratio). Item: C20A G61A C80G U109A G113U U133G
Result: -7.36

Problem: Requested field: polymerase ribozyme fitness (log ratio). Item: C15U G60A
Result: -0.966

Problem: Requested field: polymerase ribozyme fitness (log ratio). Item: U59C G71U C88U U92A
Result: -5.66

Problem: Requested field: polymerase ribozyme fitness (log ratio). Item: C13A G51A
Result: -4.85

Problem: Requested field: polymerase ribozyme fitness (log ratio). Item: G61A A84U G117A
Result: -1.64

Problem: Requested field: polymerase ribozyme fitness (log ratio). Item: C31A U81C C124A
Result: -5.14

Problem: Requested field: polymerase ribozyme fitness (log ratio). Item: C56G G57C G58A C104A
Result: -3.33

Problem: Requested field: polymerase ribozyme fitness (log ratio). Item: G42U G61U C82U G127A U133A
Result: -3.41

Problem: Requested field: polymerase ribozyme fitness (log ratio). Item: U9C G69C
Result: -0.746

Problem: Requested field: polymerase ribozyme fitness (log ratio). Item: G45U C124G U133A
Result: 0.519

Problem: Requested field: polymerase ribozyme fitness (log ratio). Item: C12U C13U A18U C20G
Result: -4.78

Problem: Requested field: polymerase ribozyme fitness (log ratio). Item: G69C G122U C124U
Result: -0.632

Problem: Requested field: polymerase ribozyme fitness (log ratio). Item: G44C A95C
Result: -2.1

Problem: Requested field: polymerase ribozyme fitness (log ratio). Item: C11G A29U A46G C72A A100C A119U
Result: -3.42

Problem: Requested field: polymerase ribozyme fitness (log ratio). Item: C56U C72G
Result: -0.66

Problem: Requested field: polymerase ribozyme fitness (log ratio). Item: C85U U112C
Result: 1.15

Problem: Requested field: polymerase ribozyme fitness (log ratio). Item: U32G A119G
Result: -5.95

Problem: Requested field: polymerase ribozyme fitness (log ratio). Item: G48A U112C U133G
Result: 0.699

Problem: Requested field: polymerase ribozyme fitness (log ratio). Item: C13G U14A C64U C86A
Result: -3.76

Problem: Requested field: polymerase ribozyme fitness (log ratio). Item: C86G G110A G113U C124A
Result: -6.69

Problem: Requested field: polymerase ribozyme fitness (log ratio). Item: U7A G57A
Result: -0.474

Problem: Requested field: polymerase ribozyme fitness (log ratio). Item: A18U G44U C88G C89A
Result: -2.55

Problem: Requested field: polymerase ribozyme fitness (log ratio). Item: C13U U132C
Result: 0.0693

Problem: Requested field: polymerase ribozyme fitness (log ratio). Item: U116A A121U
Result: -0.72

Problem: Requested field: polymerase ribozyme fitness (log ratio). Item: C13A C49U U87G C123A U131G
Result: -0.403

Problem: Requested field: polymerase ribozyme fitness (log ratio). Item: G25C C53U
Result: -5.22

Problem: Requested field: polymerase ribozyme fitness (log ratio). Item: U14C G113A
Result: -3.18

Problem: Requested field: polymerase ribozyme fitness (log ratio). Item: A5U C40U G48A
Result: -2.13

Problem: Requested field: polymerase ribozyme fitness (log ratio). Item: A18G G113C
Result: -1.3

Problem: Requested field: polymerase ribozyme fitness (log ratio). Item: C73U G107A A108G G120A C124A
Result: -3.12

Problem: Requested field: polymerase ribozyme fitness (log ratio). Item: U7G C15G C49G U112G
Result: -1.33

Problem: Requested field: polymerase ribozyme fitness (log ratio). Item: U14C U112G G113U
Result: -5.07

Problem: Requested field: polymerase ribozyme fitness (log ratio). Item: C12A G19U G57U
Result: -3.2

Problem: Requested field: polymerase ribozyme fitness (log ratio). Item: C4A G36C G42C C49A C124U
Result: -4.12

Problem: Requested field: polymerase ribozyme fitness (log ratio). Item: G48C C79U G128C
Result: -4.29

Problem: Requested field: polymerase ribozyme fitness (log ratio). Item: U9G C70G
Result: -2.02

Problem: Requested field: polymerase ribozyme fitness (log ratio). Item: G60A G113A
Result: -0.894

Problem: Requested field: polymerase ribozyme fitness (log ratio). Item: G10A C20U G65A C70A A91U C104G G120U
Result: -6.74

Problem: Requested field: polymerase ribozyme fitness (log ratio). Item: A84C U116G
Result: -1.83

Problem: Requested field: polymerase ribozyme fitness (log ratio). Item: C56A A68G G120C
Result: -4.19

Problem: Requested field: polymerase ribozyme fitness (log ratio). Item: C89A U112A
Result: -1.53

Problem: Requested field: polymerase ribozyme fitness (log ratio). Item: G71C U96C G127A
Result: -3.25

Problem: Requested field: polymerase ribozyme fitness (log ratio). Item: G10A G48A G52A
Result: -1.11

Problem: Requested field: polymerase ribozyme fitness (log ratio). Item: A95U U96A C101G U106C C124A
Result: -4.41

Problem: Requested field: polymerase ribozyme fitness (log ratio). Item: C8A G36U C49G G71U
Result: -1.2

Problem: Requested field: polymerase ribozyme fitness (log ratio). Item: C3U C73A G135U
Result: -1.52

Problem: Requested field: polymerase ribozyme fitness (log ratio). Item: C34A A84G A121G
Result: -2.74

Problem: Requested field: polymerase ribozyme fitness (log ratio). Item: C64U A74C A90C C101G
Result: -4.26

Problem: Requested field: polymerase ribozyme fitness (log ratio). Item: U30C U87G
Result: -2.72

Problem: Requested field: polymerase ribozyme fitness (log ratio). Item: U38G C53U C124U
Result: 0.103

Problem: Requested field: polymerase ribozyme fitness (log ratio). Item: C28G G39U C53U G63C C124A
Result: -3.26

Problem: Requested field: polymerase ribozyme fitness (log ratio). Item: C3U C11A C13G A74G
Result: -2.98

Problem: Requested field: polymerase ribozyme fitness (log ratio). Item: U96A C124U
Result: 1.03

Problem: Requested field: polymerase ribozyme fitness (log ratio). Item: C4U A41C
Result: -1.67

Problem: Requested field: polymerase ribozyme fitness (log ratio). Item: U54A U87A G117U
Result: -2.44

Problem: Requested field: polymerase ribozyme fitness (log ratio). Item: C12U C62U C80G U109G C114A
Result: -6.17

Problem: Requested field: polymerase ribozyme fitness (log ratio). Item: C4A G69C
Result: -3.61

Problem: Requested field: polymerase ribozyme fitness (log ratio). Item: G93U A111G
Result: -0.352

Problem: Requested field: polymerase ribozyme fitness (log ratio). Item: C13U C20U U106A G120A
Result: -1.72

Problem: Requested field: polymerase ribozyme fitness (log ratio). Item: U7G G10U C79G
Result: -1.66
